These entries and their values trace back to patent US20130130989A1.

Biological target: T1, eukaryotic translation initiation factor 4E (eIF4E), full length human (human, UniProt P06730 2-217)
T1 construct: mature; read as P06730; also called eIF4E protein
T1 sequence (P06730 2-217): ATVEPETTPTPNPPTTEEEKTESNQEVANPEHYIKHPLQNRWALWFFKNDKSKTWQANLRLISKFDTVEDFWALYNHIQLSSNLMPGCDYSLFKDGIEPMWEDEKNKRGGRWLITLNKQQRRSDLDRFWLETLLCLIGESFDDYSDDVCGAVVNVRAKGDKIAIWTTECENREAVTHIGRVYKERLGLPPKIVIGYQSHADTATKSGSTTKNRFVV
Experiment: fluorescence-based thermal shift assay (FTS), Sypro Red, 10 µM eIF4E, 100 µM peptide
Ends that are not written are not given here.
ΔT (°C) strictly less than 5 °C = T. Otherwise F.

>  <binder>
YDREFLLAFQF-NH2 (not fully specified) [Tr2_AIB3_ALA]

>  <qualitative label>
F

$$$$
>  <binder>
YDREFLLXFQF (not fully specified; G631 replaced with aminoisobutyric acid (Aib)) [Tr2_AIB3 peptide]

>  <qualitative label>
F

$$$$
>  <binder>
YDREXLLXFQF (not fully specified; Cα-methyl-L-phenylalanine at position 628; 1-aminocyclopentanecarboxylic acid (A5C) at position 631, also called truncated modified Tr2_me5-1 peptide) [Tr2_me5-1 peptide (YDRE*LL5FQF)]

>  <qualitative label>
F

$$$$

Let us examine a further case.
[ask] Say whether its ΔT (°C) is strictly beneath 5 °C. Entry: YDREFLLGFQF (not fully specified (C-terminus), also called truncated Tr2) [Tr2 peptide (truncated 11mer eIF4G1 peptide)]
[reply] T
